# Organism: Rattus norvegicus
# PROTOCOL: DrugMatrix - Regimen: Daily Repeat
# Type: toxicity, organism-based, Sprague-Dawley
# Set-up: regimen Daily Repeat, gender Male, age 6-8 weeks
# DETAILS: in vivo, po, 50 mg/kg, 72 h, tissue Blood, route oral GAVAGE, dose level Low, time 3 day, vehicle .5 % CMC
PARAMETER: MONOCYTE (%)

>  <MOLECULE>
Cc1cccc(C)c1OCC(C)N (centres undefined) [MEXILETINE]

>  <MEASURED_NUMBER>
1.33

$$$$
>  <MOLECULE>
NC1CCN(c2nc3c(cc2F)c(=O)c(C(=O)O)cn3-c2ccc(F)cc2F)C1 (centres undefined) [TOSUFLOXACIN]

>  <MEASURED_NUMBER>
0

$$$$
>  <MOLECULE>
CN(C)[C@@H]1C(O)=C(C(N)=O)C(=O)[C@@]2(O)C(O)=C3C(=O)c4c(O)ccc(Cl)c4[C@@](C)(O)[C@H]3C[C@@H]12 [CHLORTETRACYCLINE]

>  <MEASURED_NUMBER>
3

$$$$
>  <MOLECULE>
CCN1CCC[C@H]1CNC(=O)c1cc(S(N)(=O)=O)ccc1OC [LEVOSULPIRIDE]

>  <MEASURED_NUMBER>
1.67

$$$$
